Let's look at some molecules and their measured CC50.
- Test system: HepG2 2.2.15
- experiment: Cytotoxicity against human HepG2.2.15 cells by Cell-titer Glo luminescent assay
- Format: functional

molecule: CC(C)[C@@H]1COc2cc(OCC(C)(C)CO)c(Cl)cc2-c2cc(=O)c(C(=O)O)cn21
CC50: > 50 µM

molecule: COc1cc2c(cc1Cl)-c1cc(=O)c(C(=O)O)cn1[C@@H](C(C)C)CO2
CC50: > 50 µM

molecule: C=Cc1cc2c(cc1OCCCOC)OC[C@@H](C(C)C)n1cc(C(=O)O)c(=O)cc1-2
CC50: 33 µM

molecule: COCCOc1cc2c(cc1Cl)-c1cc(=O)c(C(=O)O)cn1[C@H](C(C)C)CO2
CC50: > 50 µM

molecule: CC(C)[C@@H]1COc2cc(OCC(F)(F)F)c(Cl)cc2-c2cc(=O)c(C(=O)O)cn21
CC50: 36 µM

molecule: COc1cc2c(cn1)-c1cc(=O)c(C(=O)O)cn1C(C(C)C)C2 (stereo unspecified)
CC50: > 50 µM
